assay: Absorption and emission spectra of dyes in different solvents; format: physicochemical; settings: solvent Water
measurement.label: λbs2 (nm)

Tell me λbs2 reported for CCN1/C(=C/C=C/C(=C/C2=[N+](CC)c3ccccc3C2(C)C)N(CCO)CCO)C(C)(C)c2ccccc21
447

Tell me λbs2 reported for CCN1/C(=C/C=C/C(=C/C2=[N+](CC)c3ccccc3C2(C)C)Nc2ccccc2)C(C)(C)c2ccccc21
440

Tell me λbs2 reported for CCN1/C(=C/C=C/C(=C/C2=[N+](CC)c3ccccc3C2(C)C)N(Cc2ccccc2)Cc2ccccc2)C(C)(C)c2ccccc21
447

Tell me λbs2 reported for CCN1/C(=C/C=C/C(=C/C2=[N+](CC)c3ccccc3C2(C)C)NCCO)C(C)(C)c2ccccc21
430
